Collected melting point values appear next to each entry.

Below, each entry is followed by its recorded melting point result.
input: I would be grateful if you could share the reported melting point for C=CCn1c(=O)n(-c2ccccc2OC)c2nc(-c3ccc(OCC)cc3)nc(C#N)c21 .
output: 144 to 146 °C

input: Entry under review: COc1ccc(-c2nc(C(N)=O)c3[nH]c(=O)n(-c4ccccc4OC)c3n2)cc1O [Compound 5n] . Reported melting point?
output: 319 to 321 °C

input: Field request: melting point | item: CCOc1ccc(-c2nc(C(N)=O)c3nc(SC)n(-c4ccccc4)c3n2)cc1 [Compound 11a]
output: 309.7 to 311 °C (dec.)

More entries:
input: Form field: reported melting point of CCOc1ccc(-c2nc(C#N)c3nc(N)n(-c4ccccc4OC)c3n2)cc1 [Compound 33a]
output: 297 to 299 °C

input: // returns reported melting point for input CCOc1ccc(-c2nc(C#N)c3nc(N4CCOCC4)n(-c4ccccc4OC)c3n2)cc1 [Compound 33b]
output: 273 to 275 °C

input: What melting point value was documented for this molecule, CCOc1ccc(-c2nc(C(=N)NO)c3[nH]c(=O)n(-c4cccc(C(=O)OC)c4)c3n2)cc1 [Compound 14c] ?
output: 257 to 259 °C

input: Which melting point is reported for this molecule? COc1ccccc1-n1c(=O)[nH]c2c(C(N)=O)nc(-c3ccc(O)cc3)nc21 [Compound 5b]
output: 370.2 to 371.8 °C

input: What value of melting point has been recorded for this entry: CCOc1ccc(-c2nc(C(N)=O)c3nc(S)n(-c4ccccc4)c3n2)cc1 [Compound 10a]
output: 321.2 to 321.8 °C (dec.)

* * *

test system: H1975 lung cancer cells; assay: MTT assay, growth of H1975 lung cancer cells; format: cell-based; conditions: Homo sapiens, NCI-H1975; H1975 lung cancer cell line; MTT; Table 3; read-out: IC50 H1975
metric.name: IC50 (µM)

input: Request the reported IC50 associated with CCOc1ccc(-c2nc(C#N)c3[nH]c(=O)n(-c4ccc(C(=O)OC)cc4)c3n2)cc1 [Compound 12b]
output: 9.8

(P) CCOc1ccc(-c2nc(C(=N)NO)c3c(n2)n(-c2ccccc2OC)c(=O)n3C)cc1 [Compound 21a]
(Q) CCOc1ccc(-c2nc(C(=N)NOC(=O)OCc3ccccc3)c3[nH]c(=O)n(-c4ccccc4OC)c3n2)cc1 [Compound 22a]
(R) CCOc1ccc(-c2nc(C(=O)NN)c3[nH]c(=O)n(-c4ccccc4OC)c3n2)cc1 [Compound 20a]
(S) CCOc1ccc(-c2nc(C(=N)NO)c3nc(N)n(-c4ccccc4OC)c3n2)cc1 [Compound 36a]
(T) CCOc1ccc(-c2nc(C(N)=O)c3[nH]c(=O)n(-c4ccc([N+](=O)[O-])cc4)c3n2)cc1
input: Please list these in order of increasing IC50. Thank you! Sort the labels as requested; that list is your answer.
output: Q, T, S, P, R
(Q: 3.1 µM, T: 7 µM, S: 11.9 µM, P: 30 µM, R: 60.9 µM)

(1) CCOc1ccc(-c2nc(C#N)c3nc(N(C(C)=O)C(C)=O)n(-c4ccccc4OC)c3n2)cc1 [Compound 35a]
(2) CCOc1ccc(-c2nc(C#N)c3nc(N4CCOCC4)n(-c4ccccc4OC)c3n2)cc1 [Compound 33b]
(3) COc1ccc(-c2nc(C(=N)NO)c3[nH]c(=O)n(-c4ccccc4OC)c3n2)cc1O [Compound 14f]
input: Please give the order of these molecules when sorted by IC50, largest value leading. Write the labels, ordered according to the request.
output: 2, 1, 3
(2: 74 µM, 1: 14.7 µM, 3: 2.8 µM)
